Reference for the values: patent US6506772B1

Target: human adenosine A2A receptor (Homo sapiens, UniProt P29274)
Construct: expressed in transfected cells; host or cells: CHO cells, Semliki Forest virus expression system; membrane preparation
Sequence (P29274 whole entry): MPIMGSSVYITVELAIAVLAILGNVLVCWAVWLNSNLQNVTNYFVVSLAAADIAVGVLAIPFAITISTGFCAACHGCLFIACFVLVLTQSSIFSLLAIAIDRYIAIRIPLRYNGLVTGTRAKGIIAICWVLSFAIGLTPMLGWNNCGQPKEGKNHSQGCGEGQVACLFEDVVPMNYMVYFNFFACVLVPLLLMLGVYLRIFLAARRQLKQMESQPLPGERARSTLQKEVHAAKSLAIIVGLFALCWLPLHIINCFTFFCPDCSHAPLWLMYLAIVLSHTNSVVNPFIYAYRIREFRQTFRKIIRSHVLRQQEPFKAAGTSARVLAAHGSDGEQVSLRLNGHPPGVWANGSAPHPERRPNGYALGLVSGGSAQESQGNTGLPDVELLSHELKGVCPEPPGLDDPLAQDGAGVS
Assay: Human adenosine A2A receptor [3H]-SCH-58261 binding assay
Conditions: ratio KiHA1 divided by KiHA2A
PROPERTY_MEASURED: selectivity (A1/A2a)

A = CCCN(CCC)C(=O)c1cc(N)n2nc(-c3ccccn3)nc2c1 [Example 420]
B = CC1C=CC(C)N1C(=O)c1cc(N)n2nc(-c3ccccn3)nc2c1 (stereo not drawn) [Example 415]
[Q] Smaller selectivity (A1/A2a) value? Options are A and B Choose, then provide that item's label.
[A] B

1 = Nc1cc(C(=O)N(Cc2ccccc2)Cc2ccccc2)cc2nc(-c3ccccn3)nn12 [Example 435]
2 = CCN(Cc1ccncc1)C(=O)c1cc(N)n2nc(-c3ccccn3)nc2c1 [Example 431]
[Q] Smaller selectivity (A1/A2a) value? Options are 1 and 2 Choose, then provide that item's label.
[A] 1

a = CCN(CC)C(=O)C1CCCN(C(=O)c2cc(N)n3nc(-c4nccs4)nc3c2)C1 (stereo not drawn) [Example 381]
b = CN(C)C(=O)CN(C)C(=O)c1cc(N)n2nc(-c3nccs3)nc2c1 [Example 399]
c = CC(C)CN(CC(C)C)C(=O)c1cc(N)n2nc(-c3nccs3)nc2c1 [Example 405]
[Q] hey, can you rank those compounds up there by selectivity (A1/A2a)? biggest number first please The reply should contain the labels ordered as requested.
[A] b, c, a

I = COC[C@@H]1CCCN1C(=O)c1cc(N)n2nc(-c3nccs3)nc2c1 [Example 400]
II = CC(C)N(C)C(=O)c1cc(N)n2nc(-c3ccccn3)nc2c1 [Example 411]
[Q] Smaller selectivity (A1/A2a) value? Options are I and II Choose, then provide that item's label.
[A] II
(II: 22.6, I: 53.3)

* * *

Biological target: human adenosine A2A receptor (Homo sapiens, UniProt P29274)
Construct: expressed in transfected cells; host or cells: CHO cells, Semliki Forest virus expression system; membrane preparation
Experiment: Human adenosine A2A receptor [3H]-SCH-58261 binding assay
Conditions: calculated ratio of the affinity to the HA1 receptor to the HA2a receptor
PROPERTY_MEASURED: selectivity (A1/A2a)

Below are worked cases with known answers.
[
  {
    "MOLECULE": "COc1cc(CNC(=O)c2cc(N)n3nc(-c4ccc(Br)o4)nc3c2)cc(OC)c1OC [Example 133]",
    "selectivity (A1/A2a)": 13.3
  },
  {
    "MOLECULE": "Nc1cc(C(=O)N2CC=CCC2)cc2nc(-c3ccc(Cl)o3)nn12 [Example 253]",
    "selectivity (A1/A2a)": 28.9
  }
]

a = CCN(Cc1ccncc1)C(=O)c1cc(N)n2nc(-c3ccc(Cl)o3)nc2c1 [Example 262]
b = Nc1cc(C(=O)NC2CCC2)cc2nc(-c3cccnc3)nn12 [Example 81]
c = CN(Cc1ccccc1)C(=O)c1cc(N)n2nc(-c3nccs3)nc2c1 [Example 204]
[Q] hey, can you rank those molecules up there by selectivity (A1/A2a)? biggest number first please The reply should contain the labels ordered as requested.
[A] a, b, c
(a: 36.8, b: 13.9, c: 7.8)

* * *

Target: human adenosine A2A receptor (Homo sapiens)
Construct: expressed in transfected cells; host or cells: CHO cells, Semliki Forest virus expression system; membrane preparation
Test: Human adenosine A2A receptor [3H]-SCH-58261 binding assay
Conditions: affinity to human adenosine A2A receptor; read-out: Ki HA2A
pKi: −log10 of the molar value.
PROPERTY_MEASURED: pKi

[
  {
    "COMPOUND": "CC1CC(C)CN(C(=O)c2cc(N)n3nc(-c4nccs4)nc3c2)C1 (stereo not drawn)",
    "pKi": 7.44
  }
]

A = Nc1cc(C(=O)NC2CCCCC2)cc2nc(-c3nccs3)nn12
B = COc1ccc(-c2nc3cc(C(=O)N(CCc4ccccc4)Cc4ccccc4)cc(N)n3n2)s1
C = COc1ccc(-c2nc3cc(C(=O)NCCc4ccccc4F)cc(N)n3n2)s1
D = CCCCNC(=O)c1cc(N)n2nc(-c3ccc(C)o3)nc2c1
E = COc1cc(CNC(=O)c2cc(N)n3nc(-c4cc(Br)co4)nc3c2)cc(OC)c1OC
[Q] Which order do these items take when sorted by rising pKi? List them. The reply should contain the labels ordered as requested.
[A] C, E, A, B, D
(C: 6.47, E: 6.70, A: 7.36, B: 7.58, D: 7.96)

a = Nc1cc(C(=O)NCc2ccccc2)cc2nc(-c3ccc(Cl)o3)nn12
b = COc1ccc(CNC(=O)c2cc(N)n3nc(-c4cc(Br)co4)nc3c2)cc1
c = CN(C(=O)c1cc(N)n2nc(-c3nccs3)nc2c1)C1CCCCC1
[Q] Which order do these items take when sorted by rising pKi? List them. The reply should contain the labels ordered as requested.
[A] b, c, a

A = CC1CN(C(=O)c2cc(N)n3nc(-c4ccc(Cl)o4)nc3c2)CC(C)O1 (stereo not drawn)
B = CCCCNC(=O)c1cc(N)n2nc(-c3cccnc3)nc2c1
[Q] Smaller pKi value? Options are A and B Choose, then provide that item's label.
[A] B

a = COc1cc(CNC(=O)c2cc(N)n3nc(-c4ccc(C)o4)nc3c2)cc(OC)c1OC
b = CC1CCCCN1C(=O)c1cc(N)n2nc(-c3nccs3)nc2c1 (stereo not drawn)
[Q] Pick one: a or b . Which has the bigger pKi number? Choose, then provide that item's label.
[A] b
(b: 7.33, a: 6.83)

* * *

Biological target: human adenosine A2A receptor (Homo sapiens, UniProt P29274)
Construct: expressed in transfected cells; host or cells: CHO cells, Semliki Forest virus expression system; membrane preparation
Assay: Human adenosine A2A receptor [3H]-SCH-58261 binding assay
Conditions: affinity to human adenosine A2A receptor; read-out: Ki HA2A
PROPERTY_MEASURED: Ki (nM)

Below are worked cases with known answers.
[
  {
    "COMPOUND_STRUCTURE_STRING": "COc1cc(CNC(=O)c2cc(N)n3nc(-c4ccc(C)s4)nc3c2)cc(OC)c1OC",
    "ENDPOINT_VALUE": 310
  },
  {
    "COMPOUND_STRUCTURE_STRING": "NC(=O)C1CCN(C(=O)c2cc(N)n3nc(-c4ccc(Cl)o4)nc3c2)CC1",
    "ENDPOINT_VALUE": 119
  },
  {
    "COMPOUND_STRUCTURE_STRING": "Cc1ccc(-c2nc3cc(C(=O)NCc4ccc(Cl)cc4)cc(N)n3n2)o1",
    "ENDPOINT_VALUE": 190
  },
  {
    "COMPOUND_STRUCTURE_STRING": "C=CCN(CC=C)C(=O)c1cc(N)n2nc(-c3nccs3)nc2c1",
    "ENDPOINT_VALUE": 57.6
  }
]

A = CCCNC(=O)c1cc(N)n2nc(-c3ccc(OC)s3)nc2c1
B = Cc1ccc(-c2nc3cc(C(=O)N4CCOCC4)cc(N)n3n2)s1
[Q] Smaller Ki value? Options are A and B Choose, then provide that item's label.
[A] A

a = CN(Cc1ccccc1)C(=O)c1cc(N)n2nc(-c3ccoc3)nc2c1
b = CCN(CC)C(=O)c1cc(N)n2nc(-c3sccc3C)nc2c1
[Q] Pick one: a or b . Which has the bigger Ki number? Choose, then provide that item's label.
[A] b
(b: 238 nM, a: 121 nM)

* * *

Target: human adenosine A2A receptor (Homo sapiens, UniProt P29274)
Construct: expressed in transfected cells; host or cells: CHO cells, Semliki Forest virus expression system; membrane preparation
Assay: Human adenosine A2A receptor [3H]-SCH-58261 binding assay
Settings: affinity to human adenosine A2A receptor; read-out: Ki HA2A
pKi: −log10 of the molar value.
PROPERTY_MEASURED: pKi

Below are worked cases with known answers.
[
  {
    "MOLECULE": "CC1C=CC(C)N1C(=O)c1cc(N)n2nc(-c3nccs3)nc2c1 (stereo not drawn)",
    "pKi": 6.98
  },
  {
    "MOLECULE": "Nc1cc(C(=O)N2CCN(c3ccccc3)CC2)cc2nc(-c3ccc(Br)o3)nn12",
    "pKi": 7.09
  },
  {
    "MOLECULE": "CC(C)N(C(=O)c1cc(N)n2nc(-c3ccc(Br)o3)nc2c1)C(C)C",
    "pKi": 8.00
  },
  {
    "MOLECULE": "Cc1ccc(-c2nc3cc(C(=O)NC4CCc5ccccc54)cc(N)n3n2)s1 (stereo not drawn)",
    "pKi": 7.22
  },
  {
    "MOLECULE": "Nc1cc(C(=O)N2CCCC2)cc2nc(-c3ccc(Cl)o3)nn12",
    "pKi": 7.74
  },
  {
    "MOLECULE": "CCCCN(Cc1ccccc1)C(=O)c1cc(N)n2nc(-c3ccccn3)nc2c1",
    "pKi": 7.88
  },
  {
    "MOLECULE": "CCCCNC(=O)c1cc(N)n2nc(-c3cccs3)nc2c1",
    "pKi": 7.55
  },
  {
    "MOLECULE": "Nc1cc(C(=O)NCc2ccc(F)cc2)cc2nc(-c3ccc(Cl)o3)nn12",
    "pKi": 6.81
  }
]

P = COc1ccc(-c2nc3cc(C(=O)N(CCN(C)C)Cc4ccccc4)cc(N)n3n2)s1
Q = CCCCN(CCC)C(=O)c1cc(N)n2nc(-c3nccs3)nc2c1
[Q] Pick one: P or Q . Which has the bigger pKi number? Choose, then provide that item's label.
[A] Q

a = Cc1ccc(-c2nc3cc(C(=O)N(C)C4CCCCC4)cc(N)n3n2)o1
b = CC(NC(=O)c1cc(N)n2nc(-c3ccoc3)nc2c1)c1ccccc1 (stereo not drawn)
[Q] Pick one: a or b . Which has the bigger pKi number? Choose, then provide that item's label.
[A] a

I = Cc1ccc(-c2nc3cc(C(=O)N(Cc4ccccc4)C(C)C)cc(N)n3n2)o1
II = CC(NC(=O)c1cc(N)n2nc(-c3ccccn3)nc2c1)c1ccccc1 (stereo not drawn)
III = Nc1cc(C(=O)NCc2ccc(Cl)cc2)cc2nc(-c3ccc(Cl)o3)nn12
[Q] Which order do these items take when sorted by rising pKi? List them. The reply should contain the labels ordered as requested.
[A] III, II, I
(III: 6.66, II: 7.35, I: 8.23)
